# Test system: MCF7
# PROTOCOL_NOTES: NCI tumour cell line growth inhibition, 48 h
Calls of active or inactive are those of the source. Cut-off read from the data, not from the text of the source: active = GI50 up to about 1.1 µM and inactive = higher.
Output constraint: value belongs to 1.0 for active, 0.0 for inactive

>  <COMPOUND>
Nc1nc(=O)c2c([nH]1)NCC(CCNc1ccc(C(=O)O)cc1)N2 (configuration not stated)

>  <ASSIGNED_LABEL>
0.0

$$$$

Please examine the following record next.
For this compound, state the assay outcome: Nc1ncnc2c1ncn2[C@@H]1O[C@H](COP(=O)(O)OP(=O)(O)OC[C@H]2O[C@@H](OCCCO)[C@H](O)[C@@H]2O)[C@@H](O)[C@H]1O
0.0
